target: human factor Xa (Homo sapiens, UniProt P00742); construct: 25 μl human factor Xa (Enzyme Research Laboratories, Inc; South Bend, Ind.); purchased Enzyme Research Laboratories, Inc; South Bend, Ind; experiment: Factor Xa chromogenic assay (substrate S-2765); assay type: biochemical; settings: read-out: Ki(FXa), inhibition constant for inhibition of factor Xa
Sequence (P00742 235-488 limits assumed): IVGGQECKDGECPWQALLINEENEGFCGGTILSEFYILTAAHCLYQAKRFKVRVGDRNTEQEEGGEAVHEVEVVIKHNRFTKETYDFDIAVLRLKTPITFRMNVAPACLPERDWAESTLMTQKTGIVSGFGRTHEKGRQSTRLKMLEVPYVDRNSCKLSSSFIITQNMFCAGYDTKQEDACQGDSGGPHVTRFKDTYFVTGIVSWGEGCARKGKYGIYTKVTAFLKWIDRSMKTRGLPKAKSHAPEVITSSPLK
Sequence (P00742 41-179 partner limits assumed): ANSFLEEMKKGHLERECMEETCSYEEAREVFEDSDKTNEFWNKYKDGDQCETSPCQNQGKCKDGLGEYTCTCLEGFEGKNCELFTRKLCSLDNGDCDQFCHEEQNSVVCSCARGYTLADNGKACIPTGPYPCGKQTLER
ENDPOINT: log10 Ki (log10 of the value in nM)

# STRUCTURE AS SMILES, VALUE REPORTED
rows = [
    ("N=C(N)N1CCC(CNC(=O)c2cc(O)cc(OCCc3ccc(Cl)cc3Cl)c2)CC1", 2.67),
    ("COC(=O)[C@@H](NC(=O)c1cc(O)cc(OCCc2ccc(Cl)cc2Cl)c1)C1CCN(C(=N)N)CC1", 3.33),
    ("COC(=O)[C@H](CC1CCN(C(=N)N)CC1)NC(=O)c1cc(O)c(C)c(OCCCc2ccc(Cl)cc2Cl)c1", 3.36),
    ("N=C(N)N1CCC(CNC(=O)c2cc(O)c(Br)c(OCCc3ccc(Cl)cc3Cl)c2)CC1", 1.14),
    ("Cc1c(O)cc(C(=O)NCC2CCN(C(=N)N)CC2)cc1OCCc1ccc(Cl)cc1Cl", 1.77),
]
